# methodSummary: log P by HPLC on reversed phase columns (EEC directive 79/831 Annex V.A8)
# Format: physicochemical
# testSettings: Table 1, formula (I); HPLC/LC-MS at pH 2.7, 0.1% formic acid in water / acetonitrile, gradient 10% to 95%
measuredProperty: logP^[a]

Input line: Requested field: logP^[a]. Item: CC1OC(C)(C)c2cccc(NC(=O)c3c(C(F)F)ccnc3C(F)F)c21 (stereo not shown)
Output line: 2.66^[a]

Input line: Suppose we examine the compound CC(C)C1c2cccc(NC(=O)c3cccnc3C(F)F)c2CC1C (stereo not shown) ; what logP^[a] value has been reported?
Output line: 3.78^[a]

Input line: Endpoint output: logP^[a] of CC1CC(C)(C)c2c(C3CC3)ccc(NC(=O)c3cccnc3C(F)F)c21 (stereo not shown) . Value?
Output line: 3.79^[a]

Input line: Recorded logP^[a] for CCC1CC(C)c2c(NC(=O)c3cccnc3C(F)F)cccc21 (stereo not shown) , please?
Output line: 3.37^[a]
